Assay: NCI Yeast Anticancer Drug Screen. Data for the mec2-1 strain (AID 157)
Conditions: S. cerevisiae mec2-1 strain, at 50.0 µM
Procedure: Growth inhibition of yeast strains with defined genetic alterations is measured as a screen for potential anti-cancer activity. Selected strains with alterations in DNA damage repair or cell cycle control were exposed to compounds and growth inhibition was measured relative to vehicle treated controls. The strain used in this assay is mec2-1
Compounds without any hit were thinned out: in the full panel of roughly 79,000, 15% have a hit. Active and inactive are the calls of the source. Cut-off read from the data, not from the text of the source: active = growth inhibition above about 70%; inactive = the rest.
Labels: active, inactive

>  <MOLECULE>
CCCC[N-]CC(O)C[NH-].O=C(O)CC(=O)O.[Pt+2] (configuration not stated)

>  <GROUP>
inactive

$$$$
>  <MOLECULE>
CC(C)(C)c1cc2c3c(c1)Oc1cc(C(C)(C)C)cc4c1C3(O)c1c(cc(C(C)(C)C)cc1O4)O2

>  <GROUP>
active

$$$$
>  <MOLECULE>
Cc1cc(Cl)cc2c1NC(=O)C2(O)C/C(=N/NC(=O)CC#N)c1cccc([N+](=O)[O-])c1 (configuration not stated)

>  <GROUP>
inactive

$$$$
>  <MOLECULE>
Cc1scnc1C(C#N)(c1ccccc1)c1ccccc1

>  <GROUP>
active

$$$$
>  <MOLECULE>
Cc1c(C)c(NC(=O)/C=C/C(=O)O)c(C)c(C)c1NC(=O)/C=C\C(=O)O

>  <GROUP>
active

$$$$
>  <MOLECULE>
CCCCCCCCCCCCNC(=O)C[n+]1cccc(C(N)=O)c1

>  <GROUP>
inactive

$$$$
>  <MOLECULE>
N=c1scc(-c2ccccc2)n1/N=C/c1cccnc1

>  <GROUP>
active

$$$$
>  <MOLECULE>
c1ccc2c(B(c3cccc4ccccc34)c3cccc4ccccc34)cccc2c1

>  <GROUP>
active

$$$$
>  <MOLECULE>
CC(CN(C)C)C(/C=C/c1ccccc1)=N\NC(=O)c1ccccc1 (configuration not stated)

>  <GROUP>
inactive

$$$$
>  <MOLECULE>
CC(C)C1/C(=N/O)CC(c2ccccc2)N(N=O)C1c1ccccc1 (configuration not stated)

>  <GROUP>
active

$$$$
>  <MOLECULE>
C/C(=N\NC(=S)N1CCCC1)c1cnccn1

>  <GROUP>
active

$$$$
>  <MOLECULE>
COc1ccc(N=Nc2ccc3oc(=O)c(C(=O)Nc4ccc(Cl)cc4)cc3c2)cc1

>  <GROUP>
active

$$$$
>  <MOLECULE>
CN(C)c1ccc2c(c1)N(C)c1ccccc1C2(Cl)c1ccccc1 (configuration not stated)

>  <GROUP>
active

$$$$
>  <MOLECULE>
Cc1ccc(C2CC(c3cccc([N+](=O)[O-])c3)=Nc3ccccc3S2)cc1 (configuration not stated)

>  <GROUP>
inactive

$$$$
>  <MOLECULE>
c1ccc(-c2n[nH]c3c4ccccc4c4ccccc4c23)cc1

>  <GROUP>
active

$$$$
>  <MOLECULE>
CCOC(=O)C(C(=O)OCC)C(=O)c1ccc2c(c1)OCO2

>  <GROUP>
inactive

$$$$
>  <MOLECULE>
Cc1cc(C)c(Cc2cc(C(C)(C)C)cc(C)c2O)cc1Cc1cc(C(C)(C)C)cc(C)c1O

>  <GROUP>
inactive

$$$$
>  <MOLECULE>
Cc1c(N=Nc2ccc(Br)cc2)c(-c2ccccc2)nn1C(N)=S

>  <GROUP>
active

$$$$
>  <MOLECULE>
COC(=O)C1(Cc2ccc3c(c2)CCC3)Cc2ccccc2C1O (configuration not stated)

>  <GROUP>
active

$$$$
>  <MOLECULE>
CC1=NN(c2nc(N)nc(NS(=O)(=O)c3cc(C)c(Cl)cc3S)n2)C(C)(C)C1

>  <GROUP>
inactive

$$$$
>  <MOLECULE>
Cc1[nH]c2ccccc2c1-c1ccccc1

>  <GROUP>
active

$$$$
>  <MOLECULE>
COc1cc(/C=C/C2=C(C)C(=O)CC(c3cc(OC)c(OC)c(OC)c3)C2C)cc(OC)c1OC (configuration not stated)

>  <GROUP>
inactive

$$$$
